Molecular target: UniProtKB P30411
Sequence (P30411 whole entry): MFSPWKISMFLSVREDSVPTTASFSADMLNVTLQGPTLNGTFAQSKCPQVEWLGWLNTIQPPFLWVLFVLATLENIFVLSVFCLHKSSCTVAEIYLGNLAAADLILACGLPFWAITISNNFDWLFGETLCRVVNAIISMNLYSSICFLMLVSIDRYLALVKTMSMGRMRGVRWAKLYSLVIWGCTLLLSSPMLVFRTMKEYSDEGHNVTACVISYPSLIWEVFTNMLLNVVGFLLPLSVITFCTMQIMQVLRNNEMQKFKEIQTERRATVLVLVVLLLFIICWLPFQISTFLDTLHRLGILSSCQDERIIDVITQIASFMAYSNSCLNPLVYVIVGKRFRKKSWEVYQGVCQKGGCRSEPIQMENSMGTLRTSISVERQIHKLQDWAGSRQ
Assay: Inhibition of [3H]BK (1.0 nM) binding to the human bradykinin receptor B2, expressed in CHO cells
pIC50: −log10 of the molar value.
Lab note: anything with pIC50 at or over 8 counts as T; the rest go in F.

# count of solved cases: 5
1. COCCn1c(OC)nc2c(OCc3c(Cl)ccc(N(C)C(=O)CNC(=O)/C=C/c4ccc(NC(C)=O)nc4)c3Cl)cccc21	T
2. Cc1cc(OCc2ccccn2)c2cccc(OCc3c(Cl)ccc(N(C)C(=O)CNC(=O)/C=C/c4ccc(C(=O)Nc5ccncc5)cc4)c3Cl)c2n1	T
3. CNC(=O)c1ccc(/C=C/C(=O)NCC(=O)N(C)c2ccc(Cl)c(COc3cccc4c(OCC(=O)N(C)C)cc(C)nc34)c2Cl)cc1	T
4. CNC(=O)c1ccc(/C=C/C(=O)NCC(=O)N(C)c2ccc(Cl)c(COc3cccc4c(OC5CCCC5)cc(C)nc34)c2Cl)cc1	F
5. CNC(=O)c1ccc(/C=C/C(=O)NCC(=O)N(C)c2ccc(Cl)c(COc3cccc4c(OCc5ccccn5)cc(C)nc34)c2Cl)cc1	T

Moving on to the next compound.
stdin: Quick check, pIC50 >= 8? CCOc1cc(C)nc2c(OCc3c(Cl)ccc(N(C)C(=O)CNC(=O)/C=C/c4ccc(C(=O)NC)cc4)c3Cl)cccc12
stdout: F

* * *

molecular target: B2 bradykinin receptor (Homo sapiens) (UniProt P30411); assay: Relative induced inositol phosphate formation in CHO cells expressing the human B2 receptor compared to bradykinin (10 nM); assay type: functional, cell-based
Below: a set of entries, each annotated with reported Relative agonistic activity.
Use % as the unit, but write only the number.

stdin: Item under review: Cc1cc(OCc2ccccn2)c2cccc(OCc3c(Cl)ccc(N(C)C(=O)CNC(=O)/C=C/c4ccc(C(=O)N(C)C)cc4)c3Cl)c2n1 . Reported Relative agonistic activity?
stdout: 34.3

stdin: Quick one: CNC(=O)c1ccc(/C=C/C(=O)NCC(=O)N(C)c2ccc(Cl)c(COc3cccc4c(OCc5ccccn5)cc(C)nc34)c2Cl)cn1
stdout: 57.6

stdin: Quick one: CNC(=O)c1ccc(/C=C/C(=O)NCC(=O)N(C)c2ccc(Cl)c(COc3cccc4c(OCC(=O)N(C)C)cc(C)nc34)c2Cl)cc1
stdout: 30.8

stdin: Quick one: CNC(=O)c1ccc(/C=C/C(=O)NCC(=O)N(C)c2ccc(Cl)c(COc3cccc4c(OCc5ccccn5)cc(C)nc34)c2Cl)cc1
stdout: 59.5

stdin: Quick one: CC(=O)Nc1ccc(/C=C/C(=O)NCC(=O)N(C)c2ccc(Cl)c(COc3cccc4c(OCc5ccccn5)cc(C)nc34)c2Cl)cn1
stdout: 57

stdin: Quick one: CCOC(=O)COc1cc(C)nc2c(OCc3c(Cl)ccc(N(C)C(=O)CNC(=O)/C=C/c4ccc(C(=O)NC)cc4)c3Cl)cccc12
stdout: 53.7

stdin: Quick one: Cc1cc(OCc2ccccn2)c2cccc(OCc3c(Cl)ccc(N(C)C(=O)CNC(=O)/C=C/c4ccc(N5CCCC5=O)cc4)c3Cl)c2n1
stdout: 67.4

* * *

target: B2 bradykinin receptor (Homo sapiens); experiment: Inhibition of [3H]BK (1.0 nM) binding to the human bradykinin receptor B2, expressed in CHO cells
reported-endpoint: pIC50
The value called pIC50 is obtained by taking minus log10 of the concentration in mol/L.

1. COc1nc2c(OCc3c(Cl)ccc(N(C)C(=O)CNC(=O)/C=C/c4ccc(NC(C)=O)nc4)c3Cl)cccc2n1Cc1ccccn1	9.17
2. Cc1cc(OCc2ccccn2)c2cccc(OCc3c(Cl)ccc(N(C)C(=O)CNC(=O)/C=C/c4ccc(NC(=O)c5ccncc5)cc4)c3Cl)c2n1	9.25
3. Cc1cc(OCc2ccccn2)c2cccc(OCc3c(Cl)ccc(N(C)C(=O)CNC(=O)/C=C/c4ccc(C(=O)N(C)C)cc4)c3Cl)c2n1	8.85
4. CCOC(=O)COc1cc(C)nc2c(OCc3c(Cl)ccc(N(C)C(=O)CNC(=O)/C=C/c4ccc(C(=O)NC)cc4)c3Cl)cccc12	8.59
5. CCOC(=O)Cn1c(OC)nc2c(OCc3c(Cl)ccc(N(C)C(=O)CNC(=O)/C=C/c4ccc(NC(C)=O)nc4)c3Cl)cccc21	9.04
6. CNC(=O)c1ccc(/C=C/C(=O)NCC(=O)N(C)c2ccc(Cl)c(COc3cccc4c(OCc5ccccn5)cc(C)nc34)c2Cl)cn1	8.85

Now for a further molecule.
stdin: Item under review: CCCOc1cc(C)nc2c(OCc3c(Cl)ccc(N(C)C(=O)CNC(=O)/C=C/c4ccc(C(=O)NC)cc4)c3Cl)cccc12 . Reported pIC50?
stdout: 7.11

* * *

target: B2 bradykinin receptor (Cavia porcellus, UniProt O70526); test: Concentration required to inhibit specific binding of [3H]-BK(0.06 nM) to the bradykinin receptor B2
reported-endpoint: IC50 (nM)
Use nM as the unit, but write only the number.

1) CCCOc1cc(C)nc2c(OCc3c(Cl)ccc(N(C)C(=O)CNC(=O)/C=C/c4ccc(C(=O)NC)cc4)c3Cl)cccc12	1.2

Now for a further compound.
stdin: Item under review: CCOC(=O)Cn1c(OC)nc2c(OCc3c(Cl)ccc(N(C)C(=O)CNC(=O)/C=C/c4ccc(NC(C)=O)nc4)c3Cl)cccc21 . Reported IC50?
stdout: 4.2

* * *

target: B2 bradykinin receptor (Homo sapiens); assay: Inhibition of [3H]BK (1.0 nM) binding to the human bradykinin receptor B2, expressed in CHO cells
reported-endpoint: IC50

Solved cases (5 shown):
1) CC(=O)Nc1ccc(/C=C/C(=O)NCC(=O)N(C)c2ccc(Cl)c(COc3cccc4c(OCc5ccccn5)cc(C)nc34)c2Cl)cn1	1.2 nM
2) CNC(=O)c1ccc(/C=C/C(=O)NCC(=O)N(C)c2ccc(Cl)c(COc3cccc4c(OCc5ccccn5)cc(C)nc34)c2Cl)cc1OC	0.69 nM
3) CNC(=O)c1ccc(/C=C/C(=O)NCC(=O)N(C)c2ccc(Cl)c(COc3cccc4c(OC(C)C)cc(C)nc34)c2Cl)cc1	13 nM
4) Cc1cc(OCc2ccccn2)c2cccc(OCc3c(Cl)ccc(N(C)C(=O)CNC(=O)/C=C/c4ccc(NC(=O)Cc5ccncc5)nc4)c3Cl)c2n1	2.4 nM
5) Cc1cc(OCc2ccccn2)c2cccc(OCc3c(Cl)ccc(N(C)C(=O)CNC(=O)/C=C/c4ccc(N5CCCC5=O)cc4)c3Cl)c2n1	0.83 nM

stdin: # query: IC50 | item CNC(=O)c1ccc(/C=C/C(=O)NCC(=O)N(C)c2ccc(Cl)c(COc3cccc4c(OCC(=O)O)cc(C)nc34)c2Cl)cc1 | system: B2 bradykinin receptor (Homo sapiens)
stdout: > 1000 nM

stdin: Quick one: COc1nc2c(OCc3c(Cl)ccc(N(C)C(=O)CNC(=O)/C=C/c4ccc(NC(C)=O)nc4)c3Cl)cccc2n1Cc1ccccc1
stdout: 2.5 nM

* * *

Target: B2 bradykinin receptor (Cavia porcellus, UniProt O70526)
Sequence (O70526 whole entry): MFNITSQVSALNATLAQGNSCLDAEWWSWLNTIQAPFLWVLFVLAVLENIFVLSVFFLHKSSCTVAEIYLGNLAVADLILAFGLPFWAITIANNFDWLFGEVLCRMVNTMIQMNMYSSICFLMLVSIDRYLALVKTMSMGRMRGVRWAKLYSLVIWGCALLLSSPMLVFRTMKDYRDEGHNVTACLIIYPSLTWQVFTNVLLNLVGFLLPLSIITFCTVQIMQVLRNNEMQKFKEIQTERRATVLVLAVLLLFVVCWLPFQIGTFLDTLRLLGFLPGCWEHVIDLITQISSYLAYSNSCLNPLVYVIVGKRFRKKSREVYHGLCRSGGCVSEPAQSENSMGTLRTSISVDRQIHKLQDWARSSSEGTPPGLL
Experiment: Concentration required to inhibit specific binding of [3H]-BK(0.06 nM) to the bradykinin receptor B2
reported-endpoint: IC50 (nM)
Use nM as the unit, but write only the number.

Solved cases (3 shown):
1. CNC(=O)c1ccc(/C=C/C(=O)NCC(=O)N(C)c2ccc(Cl)c(COc3cccc4c(OC(C)C)cc(C)nc34)c2Cl)cc1	1.2
2. CNC(=O)c1ccc(/C=C/C(=O)NCC(=O)N(C)c2ccc(Cl)c(COc3cccc4c(OC5CCCC5)cc(C)nc34)c2Cl)cc1	25
3. CNC(=O)c1ccc(/C=C/C(=O)NCC(=O)N(C)c2ccc(Cl)c(COc3cccc4c(OC)cc(C)nc34)c2Cl)cc1	0.23

Now for a further molecule.
stdin: Item under review: CCOc1cc(C)nc2c(OCc3c(Cl)ccc(N(C)C(=O)CNC(=O)/C=C/c4ccc(C(=O)NC)cc4)c3Cl)cccc12 . Reported IC50?
stdout: 0.19
